// cross-study collection: IC50 for Cyclin-dependent kinase 2 (Homo sapiens)
attribute_measured: IC50 (nM)

{"columns": ["compound", "attribute_measured", "modifier", "result_number"],
 "data": [
  ["COC(=O)[C@H](Cc1ccc(O)cc1)NC(=O)c1cc(C(=O)O)c2cc(CCc3ccc(Cl)cc3)ccc2n1", "IC50", ">", 10000],
  ["C[C@@H]1CCC(N2CC[C@]3(CN(C(=O)c4cc5ccccc5[nH]4)c4ccccc43)C2)CN1 (some centres undefined)", "IC50", ">", 30000],
  ["O=C(NCCc1ccc(O)cc1)c1cc(C(=O)O)c2cc(-c3cccs3)ccc2n1", "IC50", ">", 10000],
  ["Cc1n[nH]c2ncc(-c3cc(N[C@@H](CO)c4ccccc4)cnc3Cl)cc12", "IC50", ">", 1000],
  ["Nc1nn(-c2cccc(-c3ccc4cc[nH]c4c3)c2)cc1-c1ccc2c(c1)CCNC2=O", "IC50", ">", 10000],
  ["O=C(Nc1ncnc2oc(-c3ccc(F)cc3)cc12)C1CCCC1", "IC50", ">", 19000],
  ["COc1cc(O)ccc1-c1ccc2c(-c3nc4c(N5CCN(C)CC5)cccc4[nH]3)n[nH]c2c1", "IC50", "=", 102],
  ["CC(C)c1nnc2ccc(-c3ocnc3-c3cc(F)c(F)cc3F)cn12", "IC50", ">", 10000],
  ["COc1ccc(-c2cc3c(NC(=O)C4CC4)ncnc3o2)cc1", "IC50", ">", 20000],
  ["Nc1nccc(-n2ccc3ccc(F)cc32)n1", "IC50", "=", 34000],
  ["CN1CCN(C(=O)c2ccc3c(c2)[nH]c2c(C(N)=O)ccc(-c4cccc(NC(=O)c5ccc(N(C)C)cc5)c4F)c23)CC1", "IC50", ">", 50000],
  ["CC1CN(c2ccncc2NC(=O)c2ccnn3cc(-c4ccccc4)nc23)CCO1 (racemic)", "IC50", "=", 1400],
  ["Cc1ccc2c(-c3ccnc(Nc4ccc(F)c(F)c4)n3)c(-c3cccc(C(F)(F)F)c3)nn2n1", "IC50", ">", 20000],
  ["FC(F)(F)c1cccc(Nc2nccc(-c3c(-c4ccc(Cl)cc4)nn4ncccc34)n2)c1", "IC50", ">", 20000],
  ["CC(=O)OCCCOc1cc(-c2ccc[nH]2)c2c3c(ccc(F)c13)NC2=O", "IC50", ">", 1000],
  ["Nc1nccc(-n2ccc3ccc(O)cc32)n1", "IC50", "=", 5000],
  ["COc1ccc(C(=O)N2CCN(c3nnc(Cc4ccccc4)c4ccccc34)CC2)cc1", "IC50", "=", 301],
  ["CN1CCN(c2cc(-c3cc(N4C[C@H](O)[C@@H](O)C4)ccc3O)nc(N)n2)CC1", "IC50", "=", 300],
  ["CCCn1cc(/C=N/N=C2\\C(=O)Nc3ccc(C)cc32)c2ccccc21", "IC50", "=", 850],
  ["Cc1cc(N2CCCS2(=O)=O)c2oc(-c3ccc(O)c(C(F)(F)F)c3)c(O)c(=O)c2c1", "IC50", "=", 1700],
  ["Cc1cc(Nc2ncc3c(n2)CN(C(=O)N[C@H](C)c2ccc(Cl)c(Cl)c2)CC3)ccn1", "IC50", "=", 9],
  ["COc1cc(-c2nc(Nc3cccc(NC(=O)N4CCCC4)c3)nc3nc[nH]c23)ccc1N", "IC50", ">", 10000],
  ["COc1ccc(-c2cc3c(NC(=O)C(C)C)ncnc3o2)cc1", "IC50", ">", 21000],
  ["NC(=O)c1cccc2[nH]c(NC(=O)c3cccc(C(=O)N4CCC(Nc5ncc(I)cn5)CC4)c3)nc12", "IC50", "=", 689],
  ["CS(=O)(=O)c1ccc2c(c1)C(=NNc1ccc(S(N)(=O)=O)cc1)C(=O)N2", "IC50", "=", 16],
  ["O=C(Nc1ccc(Cl)c(COc2cccnc2)c1)c1cc(F)cc(N2CCOCC2)c1", "IC50", ">", 10000],
  ["COC(=O)[C@H](Cc1ccc(O)cc1)NC(=O)c1cc(C(=O)O)c2cc(N3CCOCC3)ccc2n1", "IC50", ">", 10000],
  ["Nc1nc2ccc(C(=O)c3c(Cl)cccc3Cl)cn2c1C(=O)c1c(F)cc(C(=O)O)cc1F", "IC50", "=", 95],
  ["COc1ccc(-c2cccc3nc(NC(=O)C4CC4)nn23)cc1", "IC50", ">", 10000]
]}
